Just for reference, PubChem BioAssay AID1359 is where these values come from.

target: Neuropeptide Y receptor type 2 (Homo sapiens) (UniProt P49146); test: human Y2 receptor positive modulation or activation – cell-based, primary screen (AID 1359); details: cells expressing NPY-Y2, potentiator/agonist read-out; at 3.6 µM; stronger effect = higher value;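 further: cells stimulated with NPY near EC25 plus isoproterenol at EC100; 0% = vehicle plus submaximal agonist and 100% = vehicle plus saturating agonist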
Sequence (P49146 whole entry, looked up): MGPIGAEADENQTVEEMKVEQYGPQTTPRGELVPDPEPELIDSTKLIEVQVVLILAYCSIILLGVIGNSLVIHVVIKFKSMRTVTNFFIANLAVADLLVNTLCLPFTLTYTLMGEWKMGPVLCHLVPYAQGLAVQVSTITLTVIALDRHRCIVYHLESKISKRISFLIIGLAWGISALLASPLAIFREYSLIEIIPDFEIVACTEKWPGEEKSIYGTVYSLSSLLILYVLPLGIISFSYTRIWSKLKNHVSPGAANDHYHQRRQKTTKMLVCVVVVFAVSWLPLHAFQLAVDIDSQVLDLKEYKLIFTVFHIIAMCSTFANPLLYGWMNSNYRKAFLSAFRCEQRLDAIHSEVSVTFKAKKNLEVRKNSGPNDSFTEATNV
Screen size: about 220,000 compounds; about 970 (0.44%) were called active. The list comes from a sample in which actives are over-represented; it also holds close analogues and randomly drawn compounds.
value_type: activation (%)
Report the value in % with no unit label.

Specify activation for CC(=O)OC(C(=O)NCCc1ccccc1)c1cccnc1 (configuration not stated) and stop.
-16.8

Specify activation for NC(=O)c1ccc(N2CCOCC2)nc1 and stop.
-10.3

Specify activation for CCO[C@H]1OC(C(=O)N2CCN(Cc3ccccc3)CC2)=C[C@@H](c2cn(C(C)=O)c3ccccc23)[C@@H]1CCCO and stop.
-8.85

Specify activation for O=C(O)/C=C\C(=O)Nc1ccc(OCc2ccccc2)cc1 and stop.
-1.76

Specify activation for CC(C)COP(=O)(c1ccc(N(C)C)cc1)C(Nc1ccccc1)c1cccnc1 (configuration not stated) and stop.
4.54

Specify activation for COc1ccc(C)cc1NC(=O)Nc1ccccc1SC and stop.
-22.3

Specify activation for Cc1ccc(-c2c[n+](=O)c3c(n2[O-])CCC3)cc1 and stop.
-8.75

====

biological target: Neuropeptide Y receptor type 2 (Homo sapiens); experiment: human Y2 receptor positive modulation or activation – cell-based, primary screen (AID 1359); settings: cells expressing NPY-Y2, potentiator/agonist read-out; at 3.6 µM
The campaign covered roughly 220,000 compounds. About 970 (0.44%) were called active. Rule as the data show it: active = activation above about 27%; inactive = the rest. The sample as a whole holds a higher share of actives than the screen did.
Answer with one of the outcomes active, inactive

Below are worked cases with known answers.
1) C/C(=N\NC(=O)C(N)=O)c1ccc2c(c1)OCCO2    inactive
2) Cc1nc([N+](=O)[O-])cn1CC(=O)Nc1ccc2c(c1)OCO2    inactive
3) C=CCSc1nnc(NC(=O)c2ccc(NC(C)=O)cc2)s1    inactive

Fill in: this test's call for O=[N+]([O-])c1ccc(N2CCN(CC(O)COc3ccccc3)CC2)cc1 (stereo unspecified) is ___
inactive

Fill in: this test's call for OC(COc1cccc2ccccc12)CN1CCN(c2ccccn2)CC1 (stereo unspecified) is ___
active

Fill in: this test's call for O=C(c1ccc2c(c1)OCO2)N1CCOCC1 is ___
inactive

Fill in: this test's call for CCCCNC(=S)N/N=C1\CCCCc2ccccc21 is ___
inactive

Fill in: this test's call for CC(=O)c1ccc2c(c1)OCCOCCOc1ccc(C(C)=O)cc1OCCOCCO2 is ___
active

Fill in: this test's call for Cc1ccc(NC(=O)O/N=C/c2cccc([N+](=O)[O-])c2)cc1 is ___
inactive

Fill in: this test's call for Cc1ccc(Nc2nc(CSc3nnc(-c4ccncc4)n3-c3ccccc3C)cs2)cc1 is ___
inactive

Fill in: this test's call for Cc1cccn2c(CN(C)C3CCCc4ccccc43)c(C(=O)N3CCOCC3)nc12 (stereo unspecified) is ___
inactive

Fill in: this test's call for COC(=O)c1ccc(CSc2nncn2N)cc1 is ___
inactive

Fill in: this test's call for OC(COCc1ccco1)CN1CCN(c2ccccc2)CC1 (stereo unspecified) is ___
inactive

====

# activation annotations
target: Neuropeptide Y receptor type 2 (Homo sapiens); assay: human Y2 receptor positive modulation or activation – cell-based, primary screen (AID 1359); details: cells expressing NPY-Y2, potentiator/agonist read-out; at 3.6 µM; stronger effect = higher value
The whole screen tested about 220,000 compounds, of which about 970 (0.44%) were called active. The entries come from a sample that favours actives as a whole.
Report the value in % with no unit label.

Sample records with activation:
1) Cc1ccc(S(=O)(=O)N2CCN(C(=O)COC(=O)c3c(C)noc3C)CC2)c(C)c1    -1.02
2) C#CCOCCOCCOCCNc1nc(N2CCN(C(=O)[C@H](CCC(=O)O)n3cc(C(N)CO)nn3)CC2)nc(N2CCN(C(=O)[C@H](Cc3ccc(O)cc3)n3cc(C(N)[C@H](C)CC)nn3)CC2)n1 (stereo not given in full)    -0.84
3) CC(CO)NCC12CC3CC(CC(C3)C1)C2 (stereo not given)    2.65
4) COc1ccc2c(c1)c1ncn(Cc3ccccn3)c(=O)c1n2C    -3.5

Look up Neuropeptide Y receptor type 2 (Homo sapiens) data: activation of O=C(Cn1nnc(N2CCCCC2)n1)c1ccc(Cl)c(Cl)c1 , then report it.
19

====

biological target: Neuropeptide Y receptor type 2 (Homo sapiens); assay: human Y2 receptor positive modulation or activation – cell-based, primary screen (AID 1359); settings: cells expressing NPY-Y2, potentiator/agonist read-out; at 3.6 µM; stronger effect = higher value
Screen size: about 220,000 compounds; about 970 (0.44%) were called active. This excerpt belongs to a sample that is enriched for actives.
value_type: activation (%)
Report the value in % with no unit label.

1) Cc1cc(C)c(NC(=O)c2oc3ccccc3c2COc2ccccc2)c(C)c1    -12.9
2) Cc1cc(C)c(NC(=O)C[N+](C)(C)CC(O)COc2cccc3ccccc23)c(C)c1 (stereo not given)    71.5
3) COc1ccc(CC(=O)NCc2nnc(SCC(=O)Nc3ncc(C)s3)n2C)cc1    -1.91
4) COc1ccc2[nH]c3ccc(OC)cc3c2c1    65.6

Specify activation for C/C=C/C=C/C(=O)OCC(=O)Nc1ccc(Cl)cc1 and stop.
-15.7

Specify activation for CCc1c(C)sc(NC(=O)c2cccs2)c1C(N)=O and stop.
18

Specify activation for CC(C)(C)CC(C)(C)NCC(O)COCCOc1ccc(Br)cc1 (stereo not given) and stop.
-6.14

Specify activation for CS(=O)(=O)NCc1ccc(C(=O)NCc2ccccc2)cc1 and stop.
10.7

Specify activation for CCN(CC)CC(=O)c1c[nH]c2ccc(OC)cc12 and stop.
0.4

Specify activation for Cc1cccc(OCC(O)CN2CCN(CCN3C(=O)c4cccc5cccc(c45)C3=O)CC2)c1C (stereo not given) and stop.
30.4

Specify activation for Cc1noc(COc2ccccc2OCc2onc(C)c2Cl)c1Cl and stop.
0.6

Specify activation for Cc1cc(C)cc(OCC(=O)NCc2cc(C)nc3ccccc23)c1 and stop.
-3.92

====

target: Neuropeptide Y receptor type 2 (Homo sapiens) (UniProt P49146); assay: human Y2 receptor positive modulation or activation – cell-based, primary screen (AID 1359); settings: cells expressing NPY-Y2, potentiator/agonist read-out; at 3.6 µM; stronger effect = higher value;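 further: cells stimulated with NPY near EC25 plus isoproterenol at EC100; 0% = vehicle plus submaximal agonist and 100% = vehicle plus saturating agonist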
Out of some 220,000 compounds screened, about 970 (0.44%) were called active. The full list was thinned out, with actives kept by preference.
value_type: activation (%)
Report the value in % with no unit label.

Sample records with activation:
1) CN(C)c1ccc(CNC23CN4CN(CN(C4)C2)C3)cc1    8.96
2) O=C(Nc1ccc(N2CCOCC2)nc1)c1c(F)cccc1F    -10.2

Specify activation for N#C/C(=C\N1CCOCC1)S(=O)(=O)c1ccc(Cl)cc1 and stop.
8.91

Specify activation for Cc1nn(-c2ccccc2)c(C)c1/C=C/C(=O)OC(C)C(N)=O (stereo unspecified) and stop.
-0.33

Specify activation for Oc1ccc(/C=N/Nc2ccc(C(F)(F)F)cn2)cc1O and stop.
28.2

Specify activation for O=C(CSc1ncnc2scc(-c3ccccc3)c12)NCc1ccc2c(c1)OCO2 and stop.
-18.5

====

molecular target: Neuropeptide Y receptor type 2 (Homo sapiens); test: human Y2 receptor positive modulation or activation – cell-based, primary screen (AID 1359); conditions: cells expressing NPY-Y2, potentiator/agonist read-out; at 3.6 µM;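 further: cells stimulated with NPY near EC25 plus isoproterenol at EC100; 0% = vehicle plus submaximal agonist and 100% = vehicle plus saturating agonist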
Out of some 220,000 compounds screened, about 970 (0.44%) were called active. Rule as the data show it: active = activation above about 27%; inactive = the rest. The sample as a whole holds a higher share of actives than the screen did.
Answer with one of the outcomes active, inactive

Below are worked cases with known answers.
1) NC(=O)C1(N2CCCCC2)CCN(C(=O)c2ccc(C#Cc3ccccc3)o2)CC1    active
2) OC(COCC1COc2ccccc2O1)CN1CCN(c2ccc(F)cc2)CC1 (stereo not drawn)    active

Now examine the next entry.
Fill in: this test's call for NC(=O)C1(N2CCCCC2)CCN(C(=S)Nc2ccc(Cl)cc2)CC1 is ___
inactive

====

molecular target: Neuropeptide Y receptor type 2 (Homo sapiens) (UniProt P49146); test: human Y2 receptor positive modulation or activation – cell-based, primary screen (AID 1359); conditions: cells expressing NPY-Y2, potentiator/agonist read-out; at 3.6 µM; stronger effect = higher value;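 further: cells stimulated with NPY near EC25 plus isoproterenol at EC100; 0% = vehicle plus submaximal agonist and 100% = vehicle plus saturating agonist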
Hit rate of the full screen: of about 220,000 compounds, about 970 (0.44%) were called active. The entries come from a sample that favours actives as a whole.
value_type: activation (%)
Report the value in % with no unit label.

Sample records with activation:
1) CCNS(=O)(=O)c1ccc(NC(=O)Nc2cccc(C(F)(F)F)c2)cc1    24.5
2) COc1ccc(C2c3c(C)nn(-c4ccccc4)c3NC(=O)N2c2ccccc2)cc1 (stereo not drawn)    11.1

Specify activation for O=C(CC(=O)Nc1ccc(Cl)c(Cl)c1)N/N=C/c1ccc(O)cc1 and stop.
7.69
